The reported numbers originate from PubChem BioAssay (NCI).

# Tested on: SW-620 colon
# run_description: NCI-60 one-dose screen, 48 h (100 = growth as untreated, 0 = no growth, -100 = all killed)
# stated_conditions: 10 µM
The panel holds about 83,000 compounds, 20% with a hit somewhere; the sample as a whole holds those more often.
Measured growth, listed per entry for reference.
A number alone suffices; assume %.

The examples below pair each entry with its known result.
compound	subject_of_test	growth [%]
C=CC[N+](C)(C)C	SW-620 colon	107
CCC(C)(C)C1CCC(O)CC1 (configuration not stated)	SW-620 colon	101

Now for another entry.
Q: Quick one: growth for O=[N+]([O-])c1ccccc1S(=O)c1ccccc1[N+](=O)[O-] ?
Ans: 44.6

---

# Test system: SF-539 CNS
# run_description: NCI-60 one-dose screen, 48 h (100 = growth as untreated, 0 = no growth, -100 = all killed)
# stated_conditions: 10 µM
About 83,000 compounds went through this panel and 20% of them were active in at least one assay; those are over-represented in the sample as a whole.
reported_property: growth (%)
Lab book: enter the figure in %, no units written.

molecule	subject_of_test	growth [%]
CCOC(=O)c1cc2cccc(OC)c2oc1=O	SF-539 CNS	107

Kindly consider the entry below.
Q: For CC(C)NC(=O)OCc1c(COC(=O)NC(C)C)c(-c2ccc(Cl)c(Cl)c2)n2c1SCC2 , what is its reported growth?
Ans: 32

---

Some compounds, each annotated with its measured growth.
# Tested on: A549/ATCC NSCLC
# run_description: NCI-60 one-dose screen, 48 h (100 = growth as untreated, 0 = no growth, -100 = all killed)
# stated_conditions: 10 µM
This is part of a sample that, as a whole, favours compounds with a hit. Of some 83,000 tested, about 20% had one in any assay.
Please respond with the number in % and leave the unit unwritten.

Example compounds with recorded growth:
compound	subject_of_test	result
O=C(O)CCCc1ccccc1	A549/ATCC NSCLC	102
CC(C)(O)C#CC#CC(C)(C)O	A549/ATCC NSCLC	91.5

Q: Would you mind telling me what growth value was observed for O=C(O)[C@@H]1[C@H]2C[C@H]3c4[nH]c5ccccc5c4CCN3C[C@@H]2CC[C@@H]1O ?
Ans: 101

Q: Also need COC(=O)c1ccc(C(C)C)cc1 , thanks.
Ans: 90.5

Q: Check CC1SC(N)=NC1=O (stereo not drawn) too.
Ans: 102

Q: Next: Cc1ccccc1C1N=C2Oc3ccccc3C=C2C(=O)N1 (stereo not drawn)
Ans: 33.5

Q: # repeat for CC(C)NC(=O)OCc1c(COC(=O)NC(C)C)c(-c2ccc(Cl)c(Cl)c2)n2c1SCC2
Ans: 55.3

Q: What about CCS(=O)(=O)CCCl ?
Ans: 97.4

Q: Another compound: COc1ccccc1C1OC2=Nc3cc(C)c(C)cc3NC2C1=O (stereo not drawn)
Ans: 67.6

---

# Test system: LOX IMVI melanoma
# run_description: NCI-60 one-dose screen, 48 h (100 = growth as untreated, 0 = no growth, -100 = all killed)
# stated_conditions: 10 µM
Compounds without any hit were thinned out: in the full panel of roughly 83,000, 20% have a hit.
reported_property: growth (%)
Report as a plain number; the unit % is understood.

molecule	result
O=C(NCO)c1ccccc1	105

Q: For the molecule O=C(Nc1ccccc1)OCCc1ccccc1 , what growth is on record?
Ans: 107

Q: Now this one: COc1cc(OC)c2ccc(=O)oc2c1
Ans: 96.6

Q: Field entry: COC(=O)c1[nH]c(=O)c(C#N)c(C(=O)OC)c1C(=O)c1ccccc1
Ans: 89.9

Q: Can you check CC(C)=CC(=O)OC(=O)C=C(C)C next?
Ans: 109

Q: Same thing, different molecule: COc1cccc(/C=N/NC(=S)NC2CC3CCC2C3)c1O (configuration not stated)
Ans: 44.2

Q: Another molecule: CCOc1ccc(/C=N/N=C(N)N)cc1OCC
Ans: 101
